Data credit: patent US7989482B2

# System: A2058 cells
# PROCEDURE SUMMARY: Cell viability assay (CELL-TITER-GLO) in A2058 cells
# Type: cell-based
# APPLIED CONDITIONS: Homo sapiens, A2058, 48 h, A2058 cells, 48 hour treatment, cell viability; read-out: IC50 (μM) A2058
Hi there, I'd appreciate the recorded IC50 for every entry that follows.

Ask: Quick one: IC50 of CC(C)[C@H](O)C(=O)N[C@H]1Cc2ccc3c(c2)C2(C4=C(C(=O)N5CCCC5)N=C(O4)[C@H](C(C)C)NC1=O)c1ccccc1N[C@H]2O3 (stereo partly drawn) ?
Result: > 1 µM

Ask: Quick one: IC50 of COC(=O)c1nc2oc1C13c4ccccc4N[C@H]1Oc1ccc(cc13)C[C@H](NC(=O)[C@@H]1CCCN1)C(=O)NC2C(C)C (stereo partly drawn) ?
Result: > 1 µM

Ask: Quick one: IC50 of COC(=O)c1nc2oc1C13c4cc(ccc4O[C@@H]1Nc1c(-c4c(C)cccc4C)cccc13)C[C@H](NC(=O)[C@@H](O)C(C)C)C(=O)N[C@H]2C(C)C (stereo partly drawn) ?
Result: > 1 µM
